Biological target: T1, human TfR extracellular domain with N-terminal His tag (human, UniProt P02786 89-760)
T1 construct: Biotinylated in some assays; also called huTfR; HuTfR
T1 sequence (P02786 89-760 G142S): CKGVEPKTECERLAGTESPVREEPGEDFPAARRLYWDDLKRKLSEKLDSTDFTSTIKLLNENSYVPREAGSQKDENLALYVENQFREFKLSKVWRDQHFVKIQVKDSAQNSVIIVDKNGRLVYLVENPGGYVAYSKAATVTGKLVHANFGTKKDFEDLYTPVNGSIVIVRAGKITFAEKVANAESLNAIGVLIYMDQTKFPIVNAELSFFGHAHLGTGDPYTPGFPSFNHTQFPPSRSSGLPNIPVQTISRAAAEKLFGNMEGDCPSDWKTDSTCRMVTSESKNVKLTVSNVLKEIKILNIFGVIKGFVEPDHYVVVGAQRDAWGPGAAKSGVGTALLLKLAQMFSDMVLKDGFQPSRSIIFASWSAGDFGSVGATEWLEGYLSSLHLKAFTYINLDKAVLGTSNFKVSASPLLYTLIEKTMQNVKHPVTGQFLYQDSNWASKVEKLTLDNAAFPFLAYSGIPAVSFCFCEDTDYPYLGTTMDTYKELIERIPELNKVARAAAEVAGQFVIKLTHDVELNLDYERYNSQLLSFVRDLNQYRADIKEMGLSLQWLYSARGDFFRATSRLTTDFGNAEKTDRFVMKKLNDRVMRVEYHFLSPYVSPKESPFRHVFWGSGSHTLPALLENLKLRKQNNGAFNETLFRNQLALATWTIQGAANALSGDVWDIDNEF
Assay: ELISA, TfR-coated plate, IgG in culture supernatant;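 note: human or cynomolgus TfR coated at 2 µg/mL, supernatant IgG titrated in 1:5 steps for 1 h, bound antibody read with HRP anti-human Fcγ and TMB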
endpoint-label: EC50 (ng/mL)
Provide the reading as a plain figure in ng/mL.

Record excerpt, results attached:
| binder | units-symbol | EC50 |
| --- | --- | --- |
| hu15G11.v5 IgG Ala variant Y59A (HVR-H2) (antibody, name in Kabat numbering, V domains shown, IgG in cell culture supernatant; Kabat numbers after 52a lie one below the linear count) VH: EVQLVQSGAEVKKPGASVKVSCKASGYTFTSYWMHWVRQAPGQRLEWIGEINPTNGRTNAIEKFKSRATLTVDKSASTAYMELSSLRSEDTAVYYCARGTRAYHYWGQGTMVTVSS VL: DIQMTQSPSSLSASVGDRVTITCRASDNLYSNLAWYQQKPGKSPKLLVYDATNLADGVPSRFSGSGSGTDYTLTISSLQPEDFATYYCQHFWGTPLTFGQGTKVEIK | ng/mL | 0.3 |
| hu15G11.v5 IgG Ala variant Y30A (HVR-L1) (antibody, V domains shown, IgG in cell culture supernatant) VH: EVQLVQSGAEVKKPGASVKVSCKASGYTFTSYWMHWVRQAPGQRLEWIGEINPTNGRTNYIEKFKSRATLTVDKSASTAYMELSSLRSEDTAVYYCARGTRAYHYWGQGTMVTVSS VL: DIQMTQSPSSLSASVGDRVTITCRASDNLASNLAWYQQKPGKSPKLLVYDATNLADGVPSRFSGSGSGTDYTLTISSLQPEDFATYYCQHFWGTPLTFGQGTKVEIK | ng/mL | 0.3 |

Request: # EC50 lookup, item hu15G11.v5 IgG Ala variant L29A (HVR-L1) (antibody, V domains shown, IgG in cell culture supernatant) VH: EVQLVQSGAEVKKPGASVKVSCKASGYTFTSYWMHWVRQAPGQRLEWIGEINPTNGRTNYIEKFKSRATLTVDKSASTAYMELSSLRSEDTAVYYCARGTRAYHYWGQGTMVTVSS VL: DIQMTQSPSSLSASVGDRVTITCRASDNAYSNLAWYQQKPGKSPKLLVYDATNLADGVPSRFSGSGSGTDYTLTISSLQPEDFATYYCQHFWGTPLTFGQGTKVEIK
Result: 0.3

Request: Another: hu15G11.v5 IgG Ala variant R56A (HVR-H2) (antibody, name in Kabat numbering, V domains shown, IgG in cell culture supernatant; Kabat numbers after 52a lie one below the linear count) VH: EVQLVQSGAEVKKPGASVKVSCKASGYTFTSYWMHWVRQAPGQRLEWIGEINPTNGATNYIEKFKSRATLTVDKSASTAYMELSSLRSEDTAVYYCARGTRAYHYWGQGTMVTVSS VL: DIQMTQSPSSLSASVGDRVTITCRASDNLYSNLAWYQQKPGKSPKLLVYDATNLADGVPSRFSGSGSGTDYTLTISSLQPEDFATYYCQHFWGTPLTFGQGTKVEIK
Result: 55.1
